Every entry's value here was drawn from patent US9856216B2.

MEASURED ON: TNIK (Homo sapiens)
Construct: purchased Promega V4158
Sequence (Q9UKE5 1-367 limits assumed): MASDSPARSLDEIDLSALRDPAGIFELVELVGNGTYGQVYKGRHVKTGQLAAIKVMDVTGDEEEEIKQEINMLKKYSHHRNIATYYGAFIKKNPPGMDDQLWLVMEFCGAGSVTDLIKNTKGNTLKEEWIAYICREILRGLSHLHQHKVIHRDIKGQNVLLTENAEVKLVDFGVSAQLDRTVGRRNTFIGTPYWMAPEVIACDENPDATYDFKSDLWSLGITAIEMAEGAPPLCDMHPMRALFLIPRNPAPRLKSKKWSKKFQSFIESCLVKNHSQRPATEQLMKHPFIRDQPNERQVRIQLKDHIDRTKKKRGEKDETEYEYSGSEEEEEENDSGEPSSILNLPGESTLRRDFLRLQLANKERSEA
ASSAY REMARKS: ADP-Glo Kinase Assay, inhibition activity on TNIK
Type: biochemical
RUN PARAMETERS: read-out: TNIK
Where a name gives a salt, the structure may show the parent alone.
QUANTITY KIND: IC50 (nM)

Field: example entries. Status: answers known.
O=C(Nc1ccc(-c2ccccc2)c2c1C(=O)NC2)c1ccccc1Cl : 15200
COc1ccccc1Nc1ccc(NC(=O)c2ccccc2)c2c1CNC2=O : 450
CSc1ccc(C(=O)Nc2ccc(-c3ccccc3)c3c2C(=O)NC3)cc1 : 2300

P: Cc1ccc(C(=O)Nc2ccc(-c3ccccc3)c3c2C(=O)NC3)o1
Q: COc1c(F)cccc1-c1ccc(NC(=O)c2ccccc2)c2c1CNC2=O
R: O=C(Nc1ccc(-c2cccc3ncoc23)c2c1C(=O)NC2)c1ccc(NCCN2CCCC2)cc1
Order the items by recorded IC50; the first position goes to the largest value. A ranking is expressed here by listing the labels in the requested order.
P, Q, R
(P: 730 nM, Q: 490 nM, R: 72 nM)

A: Nc1cccc(-c2ccc(NC(=O)c3ccc(NCCN4CCOCC4)cc3)c3c2CNC3=O)c1O
B: Cc1cccc(Nc2ccc(NC(=O)c3ccc(NCCN4CCCC4)cc3)c3c2CNC3=O)c1
Among A and B , which shows a numerically higher IC50 result? Please reply using the label of the selected record.
A
(A: 3180 nM, B: 590 nM)

a: O=C(Nc1ccc(-c2cccc3cc[nH]c23)c2c1C(=O)NC2)c1ccc(F)cc1
b: O=C(Nc1ccc(-c2cccc(F)c2F)c2c1C(=O)NC2)c1ccc(NCCCN2CCCC2)cc1 [Example 366, hydrochloride]
Among a and b , which shows a numerically higher IC50 result? Please reply using the label of the selected record.
a
(a: 2950 nM, b: 170 nM)

1: O=C(Nc1ccccc1F)Nc1ccc(-c2ccccc2)c2c1C(=O)NC2
2: O=C(Nc1ccc(-c2ccccc2O)c2c1C(=O)NC2)c1ccc(NCCCO)cc1
Smaller IC50 value, 1 vs 2 ? Please reply using the label of the selected record.
2
(2: 590 nM, 1: 2300 nM)

a: O=C(Nc1ccc(-c2ccco2)c2c1C(=O)NC2)c1ccc(NCCCN2CCCC2)cc1
b: O=C(Nc1ccc(Br)c2c1C(=O)NC2)c1ccc(NCCN2CCCCCC2)cc1
c: O=C(Nc1ccc(-c2cccs2)c2c1C(=O)NC2)c1ccc(F)cc1
Please list these in order of increasing IC50. Thank you! A ranking is expressed here by listing the labels in the requested order.
a, b, c
